Experiment: Probe fluorescence ratio response to linolenic acid relative to ADIFAB2
Format: binding
Settings: response relative to ADIFAB2
reported.property: DR/DR LNA
Form: value (number only, do not type unit).

### Prompt Please report the recorded DR/DR LNA for 72S 73W 74S (protein, listed as Rattus norvegicus, PEPTIDE (1)...(131) wild-type rat intestinal fatty acid binding protein) AFDGTWKVDRNENYEKFMEKMGINVVKRKLGAHDNLKLTITQEGNKFTVKESSNFRNIDVVFELGVDFAYSSWSGTELTGTWTMEGNKLVGKFKRVDNGKELIAVREISGNELIQTYTYEGVEAKRIFKKE .
### Response 4.147

### Prompt Item 72S 73W 74N (protein, listed as Rattus norvegicus, PEPTIDE (1)...(131) wild-type rat intestinal fatty acid binding protein) AFDGTWKVDRNENYEKFMEKMGINVVKRKLGAHDNLKLTITQEGNKFTVKESSNFRNIDVVFELGVDFAYSSWNGTELTGTWTMEGNKLVGKFKRVDNGKELIAVREISGNELIQTYTYEGVEAKRIFKKE has what recorded DR/DR LNA?
### Response 4.220

### Prompt So what's the measured DR/DR LNA for this one? 106Y1, 72A (protein, listed as Rattus norvegicus, PEPTIDE (1)...(131) wild-type rat intestinal fatty acid binding protein) AFDGTWKVDRNENYEKFMEKMGINVVKRKLGAHDNLKLTITQEGNKFTVKESSNFRNIDVVFELGVDFAYSAADGTELTGTWTMEGNKLVGKFKRVDNGKELIAVYEISGNELIQTYTYEGVEAKRIFKKE
### Response 0.60
